TARGET_OR_TEST_SYSTEM: HLA-B*40:01
PROTOCOL_TEXT: IEDB peptide-MHC binding, purified MHC/competitive/radioactivity; filed as Kd, often an IC50 or EC50 that approximates it; bounds were set here for any values at or beyond the usual limits of such assays
PROTOCOL_CONDITIONS: source organism: Dengue virus 1 Singapore/S275/1990
MEASUREMENT_NAME: Kd (nM)
Write the number in nM without appending the unit.

Result for GEVDSFSLGL , tested on HLA-B*40:01, Kd: 2.13

---

TARGET_OR_TEST_SYSTEM: HLA-B*15:01
PROTOCOL_TEXT: IEDB peptide-MHC binding, purified MHC/competitive/fluorescence; filed as Kd, often an IC50 or EC50 that approximates it; bounds were set here for any values at or beyond the usual limits of such assays
PROTOCOL_CONDITIONS: source organism: Vibrio antiquarius
MEASUREMENT_NAME: Kd

For reference, reported Kd for VTGCASLYV stands at ≥ 20 µM

---

TARGET_OR_TEST_SYSTEM: HLA-A*69:01
PROTOCOL_TEXT: IEDB peptide-MHC binding, purified MHC/direct/fluorescence; filed as Kd, often an IC50 or EC50 that approximates it; bounds were set here for any values at or beyond the usual limits of such assays
PROTOCOL_CONDITIONS: source organism: Stutzerimonas stutzeri
MEASUREMENT_NAME: Kd

Result for GRGQILLGK , tested on HLA-A*69:01, Kd: ≥ 20 µM

---

TARGET_OR_TEST_SYSTEM: HLA-B*53:01
PROTOCOL_TEXT: IEDB peptide-MHC binding, purified MHC/competitive/radioactivity; filed as Kd, often an IC50 or EC50 that approximates it; bounds were set here for any values at or beyond the usual limits of such assays
PROTOCOL_CONDITIONS: source organism: Mammarenavirus brazilense
MEASUREMENT_NAME: Kd (nM)
Write the number in nM without appending the unit.

Please review the entries below; each comes with its answer.
{"CONSTRUCT_SEQUENCE": "QPGLLSYVI", "EXPERIMENTAL_VALUE": 308}
{"CONSTRUCT_SEQUENCE": "LPDALLFTL", "EXPERIMENTAL_VALUE": 14.6}

// next entry
For reference, reported Kd for NPIVLHNGM stands at 10500

---

TARGET_OR_TEST_SYSTEM: HLA-A*24:03
PROTOCOL_TEXT: IEDB peptide-MHC binding, purified MHC/direct/fluorescence; filed as Kd, often an IC50 or EC50 that approximates it; bounds were set here for any values at or beyond the usual limits of such assays
PROTOCOL_CONDITIONS: source organism: Francisella tularensis subsp. holarctica LVS
MEASUREMENT_NAME: pKd
# pKd is unitless: minus log10 of the molar concentration; print number only

For reference, reported pKd for IYTVIYYIF stands at 6.57

---

TARGET_OR_TEST_SYSTEM: HLA-A*11:01
PROTOCOL_TEXT: IEDB peptide-MHC binding, purified MHC/competitive/fluorescence; bounds were set here for any values at or beyond the usual limits of such assays
PROTOCOL_CONDITIONS: source organism: Zaire ebolavirus
MEASUREMENT_NAME: IC50 (µM)
Write the number in µM without appending the unit.

{"CONSTRUCT_SEQUENCE": "AGLITGGRR", "TARGET_OR_TEST_SYSTEM": "HLA-A*11:01", "EXPERIMENTAL_VALUE": 6.55}
{"CONSTRUCT_SEQUENCE": "TQVEQHHRR", "TARGET_OR_TEST_SYSTEM": "HLA-A*11:01", "EXPERIMENTAL_VALUE": 1.67}

For reference, reported IC50 for ATEDPSSGY stands at 49.6
